target: Gag (GagΔp6) (HIV-1 BH10, UniProt P03347 1-447); experiment: fluorescence anisotropy
List of Kd values.
readout_kind: Kd (nM)

1) AGCUGCUUUUUGCCUGUACU (ssRNA) [JL943] :: 8
2) AGCTGCTTTTTGCCTGTACT (ssDNA) [JL936] :: 9

Values were extracted from paper PMC2963451.
